Reported relative viability values for a set of compounds
tested on: HARA; assay: relative viability (nuclei count vs DMSO), 5 days (fraction); higher = more cells survive; conditions: first compound 0.253 µM
parameter_measured: relative viability

{"compound": "Nc1cccc2c1CN(C1CCC(=O)NC1=O)C2=O (stereo not given) [Lenalidomide] + Cc1nc(NC(=O)N2CCC[C@H]2C(N)=O)sc1-c1ccnc(C(C)(C)C(F)(F)F)c1 [Alpelisib] (partner 2 µM)", "parameter_measured": "relative viability", "value_observed": 0.782}
{"compound": "Nc1cccc2c1CN(C1CCC(=O)NC1=O)C2=O (stereo not given) [Lenalidomide] + COc1cccc2cc(-c3nc([C@H]4CC[C@H](C(=O)O)CC4)n4ncnc(N)c34)[nH]c12 [OSI-027] (partner 0.5 µM)", "parameter_measured": "relative viability", "value_observed": 0.612}
{"compound": "Nc1cccc2c1CN(C1CCC(=O)NC1=O)C2=O (stereo not given) [Lenalidomide] + Nc1ncn([C@H]2C[C@H](O)[C@@H](CO)O2)c(=O)n1 [Decitabine] (partner 2 µM)", "parameter_measured": "relative viability", "value_observed": 0.597}
{"compound": "Nc1cccc2c1CN(C1CCC(=O)NC1=O)C2=O (stereo not given) [Lenalidomide] + CC1(C)CCC(c2ccc(Cl)cc2)=C(CN2CCN(c3ccc(C(=O)NS(=O)(=O)c4ccc(N[C@H](CCN5CCOCC5)CSc5ccccc5)c(S(=O)(=O)C(F)(F)F)c4)cc3)CC2)C1 [Navitoclax] (partner 0.5 µM)", "parameter_measured": "relative viability", "value_observed": 1.14}
{"compound": "Nc1cccc2c1CN(C1CCC(=O)NC1=O)C2=O (stereo not given) [Lenalidomide] + Cc1nc(Nc2ncc(C(=O)Nc3c(C)cccc3Cl)s2)cc(N2CCN(CCO)CC2)n1 [Dasatinib] (partner 0.075 µM)", "parameter_measured": "relative viability", "value_observed": 0.3}

====

tested on: LK-2; test: relative viability (nuclei count vs DMSO), 5 days (fraction); higher = more cells survive; details: first compound 0.1 µM

{"compound": "Cc1cn(-c2cc(NC(=O)c3ccc(C)c(Nc4nccc(-c5cccnc5)n4)c3)cc(C(F)(F)F)c2)cn1 [Nilotinib] + NC(=O)Nc1cc(-c2cccc(F)c2)sc1C(=O)N[C@H]1CCCNC1 [AZD7762] (partner 0.2 µM)", "system_name": "LK-2", "relative viability": 0.514}
{"compound": "Cc1cn(-c2cc(NC(=O)c3ccc(C)c(Nc4nccc(-c5cccnc5)n4)c3)cc(C(F)(F)F)c2)cn1 [Nilotinib] + CS(=O)(=O)CCNCc1ccc(-c2ccc3ncnc(Nc4ccc(OCc5cccc(F)c5)c(Cl)c4)c3c2)o1 [Lapatinib] (partner 2 µM)", "system_name": "LK-2", "relative viability": 0.822}
{"compound": "Cc1cn(-c2cc(NC(=O)c3ccc(C)c(Nc4nccc(-c5cccnc5)n4)c3)cc(C(F)(F)F)c2)cn1 [Nilotinib] + CC(=O)c1c(C)c2cnc(Nc3ccc(N4CCNCC4)cn3)nc2n(C2CCCC2)c1=O [Palbociclib] (partner 0.5 µM)", "system_name": "LK-2", "relative viability": 0.992}
{"compound": "Cc1cn(-c2cc(NC(=O)c3ccc(C)c(Nc4nccc(-c5cccnc5)n4)c3)cc(C(F)(F)F)c2)cn1 [Nilotinib] + Cc1nc(Nc2ncc(C(=O)Nc3c(C)cccc3Cl)s2)cc(N2CCN(CCO)CC2)n1 [Dasatinib] (partner 0.075 µM)", "system_name": "LK-2", "relative viability": 0.183}
